Entries and their microsomal CLint values follow.
Test details: Intrinsic clearance in human liver microsomes
Format: ADME
Study conditions: read-out: CLH

Smiles notation	Observed measurement
COc1cnc2ccn([C@H](C)c3nnc4c(F)cc(-c5cnn(C)c5)cn34)c(=O)c2c1	< 5 µL/min/mg

Lookup result for `COc1cnc2ccn([C@H](C)c3nnc4ccc(-c5cnn(C)c5)cn34)c(=O)c2c1` ; measured microsomal CLint: < 5 µL/min/mg

The recorded microsomal CLint for entry `C[C@H](c1nnc2c(F)cc(-c3cnn(C)c3)cn12)n1ccc2ncccc2c1=O` equals < 5 µL/min/mg
